Cited source for all entries: the supplement of paper PMC8975748

Tested on: Saccharomyces cerevisiae BY4741 SeMeCo community
Assay: mean cell size (pixel area) (pixels); higher = larger cells
Conditions: 10 µM; 24 h; SM minimal medium
Counter-ions that a name gives are not always drawn.
Quantity: mean cell size
Reply with the value as a number alone.

Answered cases to consult:
[[record]]
molecule = "O=C1OC(CN2CCOCC2)CN1/N=C/c1ccc([N+](=O)[O-])o1 (stereo unspecified) [Furaltadone HCl]"
experimental_result = 12.7

[[record]]
molecule = "C[C@@H]1CC(=O)NN=C1c1ccc(NN=C(C#N)C#N)cc1"
experimental_result = 12.5

[[record]]
molecule = "CCOc1ccc2nc3cc(N)ccc3c(N)c2c1 [Ethacridine lactate monohydrate]"
experimental_result = 12.9

[[record]]
molecule = "Cc1cc2c(s1)Nc1ccccc1N=C2N1CCN(C)CC1"
experimental_result = 12.5

[[record]]
molecule = "Cc1c(Nc2ncccc2C(=O)O)cccc1C(F)(F)F"
experimental_result = 12.6

[[record]]
molecule = "O=C(O)C[C@H](O)C[C@H](O)/C=C/c1c(C2CC2)nc2ccccc2c1-c1ccc(F)cc1"
experimental_result = 12

[[record]]
molecule = "CN(C)CC/C=C1/c2ccccc2Sc2ccc(Cl)cc21"
experimental_result = 12.2

[[record]]
molecule = "Cc1c(OCC(F)(F)F)ccnc1C[S@@+]([O-])c1nc2ccccc2[nH]1"
experimental_result = 12.3

[[record]]
molecule = "O=C1CCc2ccc(OCCCCN3CCN(c4cccc(Cl)c4Cl)CC3)cc2N1"
experimental_result = 12.3

[[record]]
molecule = "C[C@@H]1O[C@@H]1P(=O)(O)O [Fosfomycin Disodium]"
experimental_result = 12


Next molecule, mean cell size to be filled in.
In plain terms, Cc1c(-c2ccc(O)cc2)n(Cc2ccc(OCCN3CCCCCC3)cc2)c2ccc(O)cc12 [Bazedoxifene Acetate] has a documented mean cell size of 12.6
